Experiment: Clinical pharmacokinetics in plasma (LC–MS/MS, non-compartmental analysis) after oral modified formula ECa 233 capsules
Type: in vivo, human (healthy Thai volunteers)
Conditions: human, plasma, po, 500 mg, plasma; single dose oral, Day 1 (T0-24 h); ECa 233 500 mg; mean ± SD, n=11; read-out: Cmax
Form field: Cmax (one value per entry).

- MOLECULAR_STRING: "C[C@H]1[C@H](C)CC[C@]2(C(=O)O)CC[C@]3(C)C(=CC[C@@H]4[C@@]5(C)C[C@@H](O)[C@H](O)[C@@](C)(CO)[C@@H]5CC[C@]43C)[C@H]12"
  Cmax: "102 ng/mL"
- MOLECULAR_STRING: "C[C@H]1[C@H](C)CC[C@]2(C(=O)O)CC[C@]3(C)C(=CC[C@@H]4[C@@]5(C)C[C@@H](O)[C@H](O)[C@@](C)(CO)[C@@H]5[C@H](O)C[C@]43C)[C@H]12"
  Cmax: "72.3 ng/mL"

====

Assay: Clinical pharmacokinetics in plasma (LC–MS/MS, non-compartmental analysis) after oral modified formula ECa 233 capsules
Type: in vivo, human (healthy Thai volunteers)
Conditions: human, plasma, po, 250 mg, plasma; single dose oral, Day 1 (T0-24 h); ECa 233 250 mg; mean ± SD, n=12; read-out: AUC
ASSAY_READOUT: AUC (ng·h/mL)

- MOLECULAR_STRING: "C[C@H]1[C@H](C)CC[C@]2(C(=O)O)CC[C@]3(C)C(=CC[C@@H]4[C@@]5(C)C[C@@H](O)[C@H](O)[C@@](C)(CO)[C@@H]5[C@H](O)C[C@]43C)[C@H]12"
  VAL: 410
- MOLECULAR_STRING: "C[C@H]1[C@H](C)CC[C@]2(C(=O)O)CC[C@]3(C)C(=CC[C@@H]4[C@@]5(C)C[C@@H](O)[C@H](O)[C@@](C)(CO)[C@@H]5CC[C@]43C)[C@H]12"
  VAL: 648

====

Assay: Clinical pharmacokinetics in plasma (LC–MS/MS, non-compartmental analysis) after oral modified formula ECa 233 capsules
Format: in vivo, human (healthy Thai volunteers)
Details: human, plasma, po, 250 mg, plasma; multiple dose oral, Day 7 (T0-72 h); ECa 233 250 mg daily; mean ± SD, n=12; read-out: Cmax
Procedure: This was a single-center, with an open-label, two-sequence of dosages (250 and 500 mg), two-periods of study (single and multiple dose) conducted in fasting condition (Fig. 1). […] All blood samples were centrifuged at 4 °C, 3200 × g for 10 min. […] Sample preparation was performed by protein precipitation with two internal standards (glycerrhizin and […]) to correct the quantitative analysis of parent compounds and of their metabolites. […]

- MOLECULAR_STRING: "C[C@H]1[C@H](C)CC[C@]2(C(=O)O)CC[C@]3(C)C(=CC[C@@H]4[C@@]5(C)C[C@@H](O)[C@H](O)[C@@](C)(CO)[C@@H]5[C@H](O)C[C@]43C)[C@H]12"
  Cmax (ng/mL): 61.4
- MOLECULAR_STRING: "C[C@H]1[C@H](C)CC[C@]2(C(=O)O)CC[C@]3(C)C(=CC[C@@H]4[C@@]5(C)C[C@@H](O)[C@H](O)[C@@](C)(CO)[C@@H]5CC[C@]43C)[C@H]12"
  Cmax (ng/mL): 78.2

====

Form field: Cmax (one value per entry).
Experiment: Clinical pharmacokinetics in plasma (LC–MS/MS, non-compartmental analysis) after oral modified formula ECa 233 capsules
Assay type: in vivo, human (healthy Thai volunteers)
Settings: human, plasma, po, 500 mg, plasma; multiple dose oral, Day 7 (T0-72 h); ECa 233 500 mg daily; mean ± SD, n=11; read-out: Cmax

- COMPOUND: "C[C@H]1[C@H](C)CC[C@]2(C(=O)O)CC[C@]3(C)C(=CC[C@@H]4[C@@]5(C)C[C@@H](O)[C@H](O)[C@@](C)(CO)[C@@H]5CC[C@]43C)[C@H]12 [ASA, Asiatic acid]"
  READING_UNIT: "ng/mL"
  Cmax: 170
- COMPOUND: "C[C@H]1[C@H](C)CC[C@]2(C(=O)O)CC[C@]3(C)C(=CC[C@@H]4[C@@]5(C)C[C@@H](O)[C@H](O)[C@@](C)(CO)[C@@H]5[C@H](O)C[C@]43C)[C@H]12 [MDA, Madecassic acid]"
  READING_UNIT: "ng/mL"
  Cmax: 99.8

====

Experiment: Clinical pharmacokinetics in plasma (LC–MS/MS, non-compartmental analysis) after oral modified formula ECa 233 capsules
Type: in vivo, human (healthy Thai volunteers)
Conditions: human, plasma, po, 250 mg, plasma; single dose oral, Day 1 (T0-24 h); ECa 233 250 mg; median [IQR], n=12; read-out: Tmax
Form field: Tmax (one value per entry).
ASSAY_READOUT: Tmax

- MOLECULE: "C[C@H]1[C@H](C)CC[C@]2(C(=O)O)CC[C@]3(C)C(=CC[C@@H]4[C@@]5(C)C[C@@H](O)[C@H](O)[C@@](C)(CO)[C@@H]5[C@H](O)C[C@]43C)[C@H]12 [MDA, Madecassic acid]"
  VAL: "1.5 h"
- MOLECULE: "C[C@H]1[C@H](C)CC[C@]2(C(=O)O)CC[C@]3(C)C(=CC[C@@H]4[C@@]5(C)C[C@@H](O)[C@H](O)[C@@](C)(CO)[C@@H]5CC[C@]43C)[C@H]12 [ASA, Asiatic acid]"
  VAL: "1.5 h"

====

Assay: Clinical pharmacokinetics in plasma (LC–MS/MS, non-compartmental analysis) after oral modified formula ECa 233 capsules
Type: in vivo, human (healthy Thai volunteers)
Details: human, plasma, po, 500 mg, plasma; multiple dose oral, Day 7 (T0-72 h); ECa 233 500 mg daily; median [IQR], n=11; read-out: Tmax

- MOLECULE: "C[C@H]1[C@H](C)CC[C@]2(C(=O)O)CC[C@]3(C)C(=CC[C@@H]4[C@@]5(C)C[C@@H](O)[C@H](O)[C@@](C)(CO)[C@@H]5CC[C@]43C)[C@H]12 [ASA, Asiatic acid]"
  Tmax: "1.5 h"
- MOLECULE: "C[C@H]1[C@H](C)CC[C@]2(C(=O)O)CC[C@]3(C)C(=CC[C@@H]4[C@@]5(C)C[C@@H](O)[C@H](O)[C@@](C)(CO)[C@@H]5[C@H](O)C[C@]43C)[C@H]12 [MDA, Madecassic acid]"
  Tmax: "1.5 h"

====

Form field: Tmax (one value per entry).
Experiment: Clinical pharmacokinetics in plasma (LC–MS/MS, non-compartmental analysis) after oral modified formula ECa 233 capsules
Type: in vivo, human (healthy Thai volunteers)
Conditions: human, plasma, po, 250 mg, plasma; multiple dose oral, Day 7 (T0-72 h); ECa 233 250 mg daily; median [IQR], n=12; read-out: Tmax
ASSAY_READOUT: Tmax (h)

- MOLECULAR_STRING: "C[C@H]1[C@H](C)CC[C@]2(C(=O)O)CC[C@]3(C)C(=CC[C@@H]4[C@@]5(C)C[C@@H](O)[C@H](O)[C@@](C)(CO)[C@@H]5CC[C@]43C)[C@H]12"
  ASSAY_READOUT: "Tmax"
  VAL: 1.5
- MOLECULAR_STRING: "C[C@H]1[C@H](C)CC[C@]2(C(=O)O)CC[C@]3(C)C(=CC[C@@H]4[C@@]5(C)C[C@@H](O)[C@H](O)[C@@](C)(CO)[C@@H]5[C@H](O)C[C@]43C)[C@H]12"
  ASSAY_READOUT: "Tmax"
  VAL: 2

====

Test: Clinical pharmacokinetics in plasma (LC–MS/MS, non-compartmental analysis) after oral modified formula ECa 233 capsules
Assay type: in vivo, human (healthy Thai volunteers)
Details: human, plasma, po, 250 mg, plasma; multiple dose oral, Day 7 (T0-72 h); ECa 233 250 mg daily; mean ± SD, n=12; read-out: AUC
Form field: AUC (one value per entry).

- MOLECULAR_STRING: "C[C@H]1[C@H](C)CC[C@]2(C(=O)O)CC[C@]3(C)C(=CC[C@@H]4[C@@]5(C)C[C@@H](O)[C@H](O)[C@@](C)(CO)[C@@H]5[C@H](O)C[C@]43C)[C@H]12"
  AUC [ng·h/mL]: 437
- MOLECULAR_STRING: "C[C@H]1[C@H](C)CC[C@]2(C(=O)O)CC[C@]3(C)C(=CC[C@@H]4[C@@]5(C)C[C@@H](O)[C@H](O)[C@@](C)(CO)[C@@H]5CC[C@]43C)[C@H]12"
  AUC [ng·h/mL]: 1010

====

Test: Clinical pharmacokinetics in plasma (LC–MS/MS, non-compartmental analysis) after oral modified formula ECa 233 capsules
Format: in vivo, human (healthy Thai volunteers)
Conditions: human, plasma, po, 250 mg, plasma; single dose oral, Day 1 (T0-24 h); ECa 233 250 mg; mean ± SD, n=12; read-out: Cmax
ASSAY_READOUT: Cmax (ng/mL)

- MOLECULAR_STRING: "C[C@H]1[C@H](C)CC[C@]2(C(=O)O)CC[C@]3(C)C(=CC[C@@H]4[C@@]5(C)C[C@@H](O)[C@H](O)[C@@](C)(CO)[C@@H]5[C@H](O)C[C@]43C)[C@H]12"
  ASSAY_READOUT: "Cmax"
  READING_UNIT: "ng/mL"
  VAL: 66.1
- MOLECULAR_STRING: "C[C@H]1[C@H](C)CC[C@]2(C(=O)O)CC[C@]3(C)C(=CC[C@@H]4[C@@]5(C)C[C@@H](O)[C@H](O)[C@@](C)(CO)[C@@H]5CC[C@]43C)[C@H]12"
  ASSAY_READOUT: "Cmax"
  READING_UNIT: "ng/mL"
  VAL: 79.8
